These entries and their values trace back to the nanobody polyreactivity screen of Harvey et al. (2022).

# measurement-description: yeast display, Sf9 membrane polyspecificity reagent, FACS + sequencing; frameworks hold sequencing errors
parameter-measured: polyreactivity (PSR sort gate)

Consider the worked cases shown below.
QVQLVESGGGFVQAGASLRLSCAASGRTCHGYAMGWYRQAPGKERDLVAAINASGGRTYYAESVKGRFTISRDNAKNTVYLLMNSLNPEDTAVYYCGVYSASFRYGLANDYWGQGTQVTVSS	high polyreactivity
QVQLVESGGGLVQAGGSLRLSCAASGSIFVYYAMGWYRQAPGKDRELVAAITTSGGSTYYADSVKGRFTISRDNAKNTVYLQMNSLKPEDTAVYYCAAVLLAWYWSYSVPWAYDYWGQGTQVTVTS	low polyreactivity
QVQLVESGGGLVQAGGSLRLSCAASGSIFPGYAMGWYRQAPGKERELVADITSGDTTKYADSVKGRFTISRDNAKNNVYLQMNSLKPEDTAVYYCAADDYLTDFDYWGQGTQVTVSS	low polyreactivity
QVQLVESGGGLVQAGGSLRLSCAASGSTFGYYAMGWYRQAPGKERELVAAISDGGSTYYADSVKGRFTISRDNAKNTVYLQMNSLKPEDTAVYYCAAEYLAYDWYEYYYWGQGTQVTVSS	high polyreactivity
QVQLVESGGGLVQAGGSLRLSCAASGRIFPDNAMGWYRQAHGKERELVAVITYSGGSTYYADSVKGRFTISRDNAKNTVYLQMNSLKPEDTAVYYCAARDYYIWFAEVDYWGQGTQVTVSS	low polyreactivity
QVQLVESGGGLVQAGGSLRLSCAASGIIFARNAMGWYRQAPGKERELVATISRNGGRTYYADSVKGRFTISRDNAKNTVYLQMNSLKPEDTAVYYCAAGFYLRAVWMDYWGQGTQVTVSS	high polyreactivity

For each listed entry, give its polyreactivity (PSR sort gate).
1. QVQLVESGGGLVQAGGSLRLSCAASGRIFENDMGWYRQAPGKERELVATIRSDGSTNYADSVKGRFTISRDNAKNTVYLQMNSLKPEDTAVYYCAADYLGPDYFFFSNYPYDYWGQGTQVTVSS
2. QVQLVESGGGLVQAGGSLRLSCAASGIIFQAYDMGWYRQAPGKERELVAAISYSGGSTYYADSVKGRFTISRDNAKNTVYLQMNSQKPEDTAVYYCAATFYGYFDSVFSWGYYYCGQGTQVTVSS
3. QDQLVESGGALVQAGGSLRLSCAASGSIFDYNAMGWYRQAPRKDRELVAAISVNGGNTYYADSVKGRFTISRDNAKNTVYLQMNRLKPEDTGVSYCAADSYGGSNYDFWGQGTQVTVSS
4. QVQLVESGGGLVQAGGSLRLICAASGSIFNQNSMGWYRQAPGKERELVAVISSGGRTSYADSVKGRFTISRDNAKNTVFLLMNSLKPEDTAVYYCNREGWHYGPYGYWGQGTQVTVSS
5. QVQLVESGGGLVQAGGSLRLSCAASGLTFPHNAMGWYRQAPGKERELVAAITSSGGSTYYADSVKGRFTISRDNAKNTVYIQMNSLKPEDTAVYYCAAKRKPRPSYRYGYWGQGTQVTVSS

Given back:
1: low polyreactivity; 2: low polyreactivity; 3: low polyreactivity; 4: low polyreactivity; 5: high polyreactivity

====

# measurement-description: yeast display, Sf9 membrane polyspecificity reagent, FACS + sequencing; frameworks hold sequencing errors
parameter-measured: polyreactivity (PSR sort gate)

QVQLHESGGGLVQAGGSLRLSCAASGTISYAGPMGWYRQAPGKEREFVAGIGVGSNTNYADSVKGRYTIIRDNAKNTVYLQMNSLKPEDTAVYYCAVGGYAPLGRPYWGQGTQVTVCS	low polyreactivity
QVQLVESGGGLVPAGGSLRLSCAASGSTFVSKAMGWYRQAPGKERELLAAISTSGGSTYNADSVKGRVTISGDNAKNTVYLQMNSLKPEDTAVYYCAKLLAGGFRIWQDYDYWGQGTQVTVSS	low polyreactivity
QVQLLESGGGLVQAGGSRRLSCAASGRTFIFNAMGWYRQAPGKETELVAAISSGGGTNYADSEKGRFTISRDNAKNTVYLQMNSLKPEDTAVYYCARGSYKYRHSYDYWGQGTEVTVSS	low polyreactivity

====

# measurement-description: yeast display, Sf9 membrane polyspecificity reagent, FACS + sequencing; frameworks hold sequencing errors
parameter-measured: polyreactivity (PSR sort gate)

Consider the worked cases shown below.
QVQLVESGGGLVQAGGSLRLSCAASRFTFVRYAMGWYRQAPGKEREFVASISARGGNTFYADSVKGRFTISRDNAKNTVYLQMNSLKPEDTAVYYCAASRRVGEVSYYYWGQGTQVTVSS	high polyreactivity
QVQLVESGVGLVQAGGSLRLSCASSGRTFTPNGMGWYRQAPGKERELVAAITYGGGITDYADSVKGRFTISRDNAKNTVYLQMNRLNPEDTAVYYCAATTLSFEGGKYWSKYDYWGQGTQVTVSS	low polyreactivity
QVQLVESGGGLVQAGGSLRLSCAASGSIFTKYAMGWYRQAPGKERELVAAISQGGASTRYADSVKGRFTISRDNAKNTVYLQMNSLKPVDTADEYCAAKSRHFWMDYWGQGTQVTVSS	high polyreactivity
QVQLVESGGRLVQAGGSLRLSCAASGRILRQYTMGWYRQAPGKERELVAGITGSDSSTYYADSVKGRFTISRDNAKNTVYFQMNSLKPEDRAVYYCGTYRWGTLASIYYYWGQGPQVTVSS	low polyreactivity
QVQLVESVGGLVQAGGSLRLSSAASGFTFVPYAMGWYRQAPGKERETNADSVKGRFTISRDNAKNTVYLQMNSLKPEDTAVYYCAADLGRGIYDYWGQGTQVTVSS	low polyreactivity
QVQLVESGGGLVQAGGSLRLICAASGRTFRGDAMGWYRPAPGKERELVAAITKSGGSTYYADSVKGRFTISRDNAKNTVYLQMNSLKPEDTAVYYCAKLRSSRDYDYWGQVTQVTVSS	high polyreactivity
QVQLVESGGGLVQAGGSLRLSCAASGRIFGNYAMGWYRQAPGKERELVAAISGGGSTYYADSVKGRFTISRDNAKNTVYLQMKSLKPEDTAVYYCAARFLWSVFGRKGGYWGQGTQVTVSS	low polyreactivity
QVQLVESGGGLVQAGGSLRLSCAASGSTFPEYAMGWYRKAPGKERELVAAISKSGGRTYYADSVKGRFTISRDNAKNTVYLQMNSLNPEDTAVYYCARDSYPHGRARFDYWGQGTQVTVSS	high polyreactivity

For each listed entry, give its polyreactivity (PSR sort gate).
1. QVQLQESGGGLVQAGGSLRLSCAASGYISFSGYMGRYRQAPGKEREFVDSITPGRSTYYADSVKGRFTISRDNAENTVYLQMNSLQPEDTAVDYCAADDSRTEQHAYWGQGTQVTVRS
2. QVQLVESCGGLVQAGGSLRLSCADSGYTFTTYVMGWYRQAPGKERELVAAISRRGTSTRYADSVKGRFTISRDNAKNTVYFQMNSLKPEDTAVYYCAARSSVPNRFTRDGYWGQGTQVTVSS
3. QVQLVESGGGLVQAGGSLRLSCAASGSIFGKNVMGWYRQAPGKDRELVAAITSGASTYYADSVKGRFTISRDNAKNTDYLQMNSLKPDDTAVYYCAARRWRKYYSGYNYWGHGTQVTVSS
4. QVQLVESGGGLVQAGGSLRLSCAASGFIFSYYVMGWYRQAPGKERELVAGISWNGGRTYYADSVKGRFTISRDNAKNTVYFQMNSLKPEDTAVYYCAKDPYSKRRASSGYDYWGQGTQVTVSS
5. QVQLVESGGGLVQAGGSLRIICPASGNTFAYYAMGWYRQAPGKEREFVAAISGSGGRTYYADSVKGRFTISRDNAKNTVYLQMNILKPEDTAVYYCNARPAGGQGYGYWGQGTQVTVSS
6. QVQLVESGGGLVQAGGSLRLSCAASGFTFDSNVMGWYRQAPGKEREVVAAITGDDTTYYADSVKGRFTISRDNAKNTVYLQMNSLKPEDTAVYYCAADETESLEYTAYDMYYWGQGTQVTVSS

Given back:
["high polyreactivity", "high polyreactivity", "high polyreactivity", "low polyreactivity", "high polyreactivity", "low polyreactivity"]

For each listed entry, give its polyreactivity (PSR sort gate).
1. QVQLVESGGGIVQAGGSLRLSCGASGSIFVTYTMGWYRQAPGKERELVAAITSDGRTYYADSVKGRFTISRDNAKNTVYLQMNCLKPEDTAVYYCAADSSGYYWFNYWGQGTQVTVSS
2. QVQLVESGGGLVQAGGTLRLSCAASGSTYEVYAMGWYRQAPGTERELVAVITGNGGSTNYADSVKGRFTISRDNAKNTVYLQMNSLKPEDTAVYYCAADFYTFVRSDYWGQGTQVTVSS
3. QVQLVESGGGLVQAGGSLRLSCAASGIIFGRYTMGWYRQAPGKERELVAAITSSGITYYADSVKGRFTISRDNAKNTVYLQMHSLTPEDTAVYYCAADSPVSVTADDGYSGQGTQVTVSS
4. QVQLVESGGVLVQAGGSLRLRCAASVRNYNSYMGWYRPAPGKERELVAAISWSSGTSTYYADSVKGRFTISRDNAKNTVYLQMNSLKPEDTEVYYCNAVDYFGPYPEEYDYWGQGTQVTVSS
5. QVQLVESGGGLVQAGGSLRLSCAASGLIFYGNAMGWYRQSPGKDRELVAAISRRGGRTYYADSVKGRFTISRDNAENTVYLQMNSLKPEDTAVYYCSAQYSYPYYKVTLYYWGQGTQVTVSS

Given back:
low polyreactivity
low polyreactivity
low polyreactivity
low polyreactivity
high polyreactivity

For each listed entry, give its polyreactivity (PSR sort gate).
1. QVQLVESGGGLVQAGGSLRLSCAASGSIIYGYAMGWYRQAPGKERELVASISSGGSTNYADSVKGRFTISRDNAKNTVYLQMNSLKPEDTAVYYCAAYFQRSGFSFRLRGQGTQVTVSS
2. QVQLVESGGGLVQAGRSLRLICAASGSTFPSYAMGWYRQAPGNERELVAAINSGGGTNYADAVKGRFTISRDNAKNTVYLQMNSLKPEDTAVFYCAKSRYDYTKTEGGYWGQATQVTVSS

Given back:
1. high polyreactivity
2. low polyreactivity
